For each record, write down the corresponding log10 of MIC.
Test system: Bacillus subtilis
protocol_notes: Antibacterial activity against Bacillus subtilis 6633 incubated for 16 to 18 hrs by broth dilution assay
Type: functional
condition_label: time 16-18 hrs
Annotation: log10 of MIC, µM basis.

Solved entries (count: 6):
{"substance": "H-LGRLLGRLLGRLLGRL-OH", "readout_kind": "log10 of MIC", "observed_measurement": 0.26}
{"substance": "H-LGRLGRLGRLGR-OH", "readout_kind": "log10 of MIC", "observed_measurement": 2.18}
{"substance": "H-GRLGRLGRLGRLGRL-OH", "readout_kind": "log10 of MIC", "observed_measurement": 1.18}
{"substance": "H-VLGRVLGRVLGRVLGR-OH", "readout_kind": "log10 of MIC", "observed_measurement": 0.56}
{"substance": "H-RLRLRLRLRLRLRL-OH", "readout_kind": "log10 of MIC", "observed_measurement": 0.52}
{"substance": "H-RLVRLVRLVRLVRLV-OH", "readout_kind": "log10 of MIC", "observed_measurement": 0.23}

Q: Which log10 of MIC value belongs to H-RLVRLVRLVRLV-OH ?
A: 0.32

Reference source for all entries: ChEMBL document CHEMBL6087460
